Could you please report measured ED50 for the items listed next?
Tested on: Mus musculus
Assay: Anxiolytic activity in NMRI BR mice after ip administration by PTZ test
Type: functional
Kindly answer with a numeric value in mg/kg, unit omitted.

Answer with the recorded ED50 of CN1C(=O)CN=C(c2ccccc2)c2cc(Cl)ccc21 only.
0.4

Return ED50 (reported value) for this compound: O=C1C2C=Nc3ccccc3C2=NN1c1ccc(Cl)cc1 (configuration not stated)
1.36

Return ED50 (reported value) for this compound: O=c1cc(-c2ccccc2)on1-c1ccc(Cl)cc1
253

Hello, please tell me recorded ED50 for this one: O=C1C=C(N2CCOCC2)C(=O)N1c1ccc(Cl)cc1
120

Tell us which ED50 value is on record for Cc1cccc(N2CC(N3CCOCC3)=CC2=O)c1
62.3

Tell me its ED50 given O=C1C=C(N2CCOCC2)CN1c1ccc(F)c(Cl)c1 as the entry.
22.3

Tell me its ED50 given O=C1C=C(N2CCOCC2)CN1c1ccc(Cl)cc1 as the entry.
10.9

###

Tested on: Cynomolgus monkey
Assay: Plasma concentration in cynomolgus monkey at 30 mg/kg, po
Assay type: ADME, organism-based, Macaca fascicularis
Set-up: dose 30 mg/kg, route oral
Details: in vivo
observation type: concentration

Return reported concentration. Input compound: O=C1N=C(N2CCOCC2)CN1c1ccc(Cl)cc1 [IMEPITOIN]
39 µM

###

Assign ED50 to each entry below.
Tested on: Mus musculus
Test: Anxiolytic activity in NMRI BR mice after ip administration by PTZ test
Assay type: functional

Find the measured ED50 of O=C1C=C(N2CCCC2)C(=O)N1c1ccc(F)cc1 and report it.
> 200 mg/kg

Specify measured ED50 for O=C1C=C(N2CCOCC2)CN1c1ccc(F)cc1 .
337 mg/kg

State its ED50 for this compound: O=C1N=C(N2CCCCCCC2)CN1c1ccc(Cl)cc1
> 300 mg/kg

Report measured ED50; entry is O=C1N=C(N2CCOCC2)CN1Cc1ccccc1Cl
> 300 mg/kg

Annotate the compound Clc1ccc(-n2cnc(-c3ccccc3)c2)cc1 with its measured ED50.
> 300 mg/kg

Write down ED50 measured for item O=C1C=C(N2CCCCCC2)CN1c1ccc(Cl)cc1
234 mg/kg

Name the recorded ED50 of the item O=C1N=C(N2CCCCCC2)CN1c1ccc(Cl)cc1 in your answer.
> 300 mg/kg

Tell me its ED50 given O=C1N=C(N2CCOCC2)CN1Cc1ccccc1 as the entry.
> 300 mg/kg

Tell me measured ED50 for Clc1ccc(-c2cnn(-c3ccccn3)c2)cc1 please.
> 300 mg/kg

Note ED50 for the compound shown: Clc1ccc(-c2noc(N3CCOCC3)n2)cc1
> 300 mg/kg

Identify measured ED50 associated with O=C1N=C(N2CCOCC2)CN1c1cccc(Cl)c1
> 300 mg/kg

###

Test system: Mus musculus
Test: Anxiolytic activity in NMRI BR mice after ip administration by PTZ test
Assay type: functional
Record form. Attribute: ED50. Fill in for each entry.

Please look at this compound and report its ED50: CC(c1ccccc1)N1CC(N2CCOCC2)=NC1=O (configuration not stated)
> 300 mg/kg

Look up and state reported ED50 for COC1(OC)C(N2CCOCC2)=NC(=O)N1c1ccc(Cl)cc1
> 100 mg/kg

Report ED50 for CN(C)C1=NC(=O)N(c2ccc(Cl)cc2)C1
> 300 mg/kg

Identify the reported ED50 for the following entry. O=C1C=C(N2CCCC2)CN1c1ccc(Cl)cc1
> 300 mg/kg

Supply reported ED50 belonging to this compound: O=C1C=C(N2CCCC2)C(=O)N1c1ccc(Cl)cc1
> 300 mg/kg

Indicate its recorded ED50; the compound in question is CN1CCN(C2=NC(=O)N(c3ccc(Cl)cc3)C2)CC1
> 300 mg/kg

Identify measured ED50 associated with O=C1N=C(N2CCOCC2)CN1c1ccc(Br)cc1
21.8 mg/kg

Complete the entry with ED50 for O=C1N=C(N2CCOCC2)CN1c1ccccc1
121 mg/kg

Provide only the value of recorded ED50 for Cc1ccc(N2CC(N3CCOCC3)=CC2=O)cc1
89.3 mg/kg

Give a short answer stating reported ED50 for O=c1cc(-c2ccccc2)[nH]n1-c1ccc(Cl)cc1 .
> 300 mg/kg

Tell me its ED50 given O=C1N=C(N2CCOCC2)CN1c1ccc(Cl)c(Cl)c1 as the entry.
> 300 mg/kg

Determine its reported ED50: O=C1C=C(N2CCOCC2)C(=O)N1c1ccc(F)cc1
128 mg/kg

###

Target: GABA-A receptor; anion channel
Assay: Binding affinity to Wistar rat benzodiazepine receptor
Hi there, I'd appreciate the recorded pKi for every entry that follows.
Scale: negative log10 of molar concentration, which is what pKi denotes.

Return pKi (reported value) for this compound: Cc1cccc(N2CC(N3CCOCC3)=CC2=O)c1
5.35

For the compound O=C1C=C(N2CCOCC2)CN1c1ccc(F)cc1 , give its reported pKi.
6.31

Report pKi for O=C1C=C(N2CCOCC2)C(=O)N1c1ccc(Cl)cc1
5.05

Return value of pKi for input O=C1N=C(N2CCCCCC2)CN1c1ccc(Cl)cc1 , no commentary.
4.94

For O=C1C2C=Nc3ccccc3C2=NN1c1ccc(Cl)cc1 (configuration not stated) [CGS-9896] , write its pKi.
8.62

Tell me its pKi given O=C1N=C(N2CCOCC2)CN1c1ccc(Br)cc1 as the entry.
5.51

Could you please provide reported pKi for O=C1C=C(N2CCOCC2)CN1c1ccc(Cl)cc1 ? Thanks!
6.85

Answer with reported pKi of O=C1N=C(N2CCCC2)CN1c1ccc(Cl)cc1
5.37

State its pKi: O=C1C=C(N2CCCCCC2)CN1c1ccc(Cl)cc1
6.36

Give the reported pKi for this compound. O=C1N=C(N2CCOCC2)CN1c1ccccc1
5.20

Please give measured pKi of the following entry: O=C1C=C(N2CCCC2)C(=O)N1c1ccc(Cl)cc1
5.49

Determine from records and report pKi for O=C1C=C(N2CCCC2)CN1c1ccc(Cl)cc1
7.17

Give the reported value of pKi for this record: O=C1C=C(N2CCOCC2)CN1c1ccc(F)c(Cl)c1
5.69

Supply recorded pKi for Clc1ccc(-n2cnc(-c3ccccc3)c2)cc1 here.
5.48

Complete the entry with pKi for Cc1ccc(N2CC(N3CCOCC3)=CC2=O)cc1
6.46

Please indicate pKi recorded for Clc1ccc(-c2noc(N3CCOCC3)n2)cc1
4.58

Using known records, supply pKi for O=C1N=C(N2CCOCC2)CN1c1ccc(Cl)cc1 [IMEPITOIN]
5.36

###

Experiment: Partition coefficient of the compound, log P
Type: physicochemical
Conditions: octanol/water
What logP was measured for each of the following?
Answer as a number with no unit attached.

Read off the recorded logP for O=C1N=C(N2CCOCC2)CN1Cc1ccccc1
0.5

Read off the recorded logP for O=C1C=C(N2CCCC2)C(=O)N1c1ccc(F)cc1
2.3

Annotate the molecule O=C1N=C(N2CCCCCCC2)CN1c1ccc(Cl)cc1 with its measured logP.
2.7

Quick one: give measured logP for O=C1C=C(N2CCOCC2)CN1c1ccc(Cl)cc1
1.9

Please indicate logP recorded for COC1(OC)C(N2CCOCC2)=NC(=O)N1c1ccc(Cl)cc1
1.7

Give the reported value of logP for this record: Cc1ccc(N2CC(N3CCOCC3)=CC2=O)cc1
1.4

# return recorded logP for entry O=C1C=C(N2CCOCC2)C(=O)N1c1ccc(Cl)cc1
2.3

Answer with reported logP of O=C1N=C(N2CCOCC2)CN1c1ccc(Cl)cc1 [IMEPITOIN]
1.5

# return recorded logP for input O=C1N=C(N2CCOCC2)CN1c1ccccc1
0.6

Look up logP of O=c1cc(-c2ccccc2)[nH]n1-c1ccc(Cl)cc1 and report it.
2.6

Quick one: give measured logP for O=C1C=C(N2CCOCC2)C(=O)N1c1ccc(F)cc1
1.5

Dear colleague, please send me the reported logP for O=C1C=C(c2ccc(Cl)cc2)C(=O)N1c1ccc(Cl)cc1 when you can.
3

Return value of logP for input Clc1ccc(-c2cnn(-c3ccccn3)c2)cc1 , no commentary.
4.3

Give a short answer stating reported logP for CC(c1ccccc1)N1CC(N2CCOCC2)=NC1=O (configuration not stated) .
0.8

Please give the documented logP of O=C1N=C(N2CCOCC2)CN1c1cccc(Cl)c1
1.3

Tell me its logP given CN1CCN(C2=NC(=O)N(c3ccc(Cl)cc3)C2)CC1 as the entry.
2.2

State its logP: O=C1N=C(N2CCCC2)CN1c1ccc(Cl)cc1
2

// Input: CN(C1=NC(=O)N(c2ccc(Cl)cc2)C1)C1CCCCC1 . Output its logP only.
2.7

Kindly indicate its recorded logP. Item: O=C1C=C(N2CCCCCC2)CN1c1ccc(Cl)cc1
3.4

Identify logP associated with the molecule O=C1N=C(N2CCOCC2)CN1c1ccc(Br)cc1
1.4

Quickly give me recorded logP for Cc1cccc(N2CC(N3CCOCC3)=CC2=O)c1
1.5

# return recorded logP for entry O=C1C=C(N2CCOCC2)CN1c1ccc(F)c(Cl)c1
2.2

Assign logP to the following record: O=c1cc(-c2ccccc2)on1-c1ccc(Cl)cc1
4.1

Tell me its logP given O=c1oc(-c2ccccc2)nn1-c1ccc(Cl)cc1 as the entry.
2.6

Hello, please tell me recorded logP for this one: CN(C)C1=NC(=O)N(c2ccc(Cl)cc2)C1
1.6

Return logP for the following molecule: O=C1N=C(N2CCOCC2)CN1Cc1c(Cl)cccc1Cl
1.3

Quick one: give measured logP for Clc1ccc(-n2cnc(-c3ccccc3)c2)cc1
3.7

Give recorded logP. O=C1N=C(N2CCOCC2)CN1c1ccc(Cl)c(Cl)c1
1.9

Give logP for O=C1N=C(N2CCOCC2)CN1Cc1ccccc1Cl
1

For the molecule Clc1ccc(-c2noc(N3CCOCC3)n2)cc1 , give its measured logP value.
3.1

Supply recorded logP for O=C1N=C(N2CCOCC2)CN1c1ccc(I)cc1 here.
1.7

State its logP for this molecule: O=C1C=C(N2CCCC2)C(=O)N1c1ccc(Cl)cc1
3

Just for reference, ChEMBL document CHEMBL1138158 is where these values come from.
